The entries below come with measured ND50 values attached.
biological target: human IL-1β (human, UniProt P01584 117-269); assay: cell-based or functional assay

Answered examples (6):
- ABT2-6 (other) VL: DIQMTQSPSSLSASVGDRVTITCRASQSIGLLLTWYQQKPGKAPKLLIYMASQLQSGVPSRFSGSGSGTDFTLTISSLQPEDFATYYCQQWHRPPSTFGQGTKVEIKR: > 20000 nM
- ABT2-65-504 (other) VH: EVQLLESGGGLVQPGGSLRLSCVASGFTFEDYQMGWVRQAPGKGLERVSSVSAMGNRTHYADSVKGRFTISRDDSKNTLYLQMNSLRAGDTAVYYCAQNLVRLGRSRWMFDYWGQGTLVTVSS: 4 nM
- ABT2-43 (other) VL: DIQMTQSPSSLSASVGDRVTITCRASQNIDTYLTWYQQKPGKAPRLLIYGASTLQSGVPSRFSGSGSGTDFTLTISSLQPEDFATYYCQQRAYYPTTFGQGTKVEIKR: > 10000 nM
- ABT2-72 (other) VH: EVQLLESGGGLVQPGGSLRLSCAASGFTFRAYDMGWVRQAPGKGLEWVSVIYAWGTSTYYADSVKGRFTISRDNSKNTLYLQMNSLRAEDTAVYYCAKTSSDGFDYWGQGTLVTVSS: > 10000 nM
- ABT2-35 (other) VH: EVQLLESGGGLVQPGGSLRLSCAASGFTFGEYDMAWVRQAPGKGLEWVSVIYAWGTSTYYADSVKGRFTISRDNSKNTLYLQMNSLRAEDTAVYYCAKMGGGLVSLPQSKFDYWGQGTLVTVSS: > 10000 nM
- ABT2-60 (other, VK dAb) VL: DIQMTQSPSSLSASVGDRVTITCRASQSIRVFLSWYQQKPGKAPKLLIYNASNLQSGVPSRFSGSGSGTDFTLTISSLQPEDFATYYCQQRALYPTTFGQGTKVEIKR: > 1000 nM

Attention now shifts to the item below.
Inquiry: Provide one value: measured ND50 of ABT2-65-47 (other, VH dAb) VH: EVQLLESGGGLVQPGGSLRLSCAASGFTFEDYQMGWVRQAPGKGLEWVSSISAMGNRTYYADSVKGRFTISRDDSKNTLYLQMNSLRAEDTAVYYCAKWRKRTQSKLGYFDYWGQGTLVTVSS
Reply text: 80 nM

Reference for the values: patent US20090291081A1
